Data origin: ChEMBL document CHEMBL1155875

- assay-summary: Selectivity ratio of IC50 for TGH over IC50 for rat FAAH expressed in Escherichia coli
Each item that follows carries a reported Ratio IC50.
measured-metric: Ratio IC50

> print(dat)
                                   molecule  measured.metric  measurement
1     O=C(CCCCCCc1ccccc1)c1nnc(-c2ccccc2)o1       Ratio IC50           10
2               O=C(CCCCCCc1ccccc1)c1cccnn1       Ratio IC50            1
3  N#Cc1cccc(-c2ccc(C(=O)CCCCCCc3ccccc3)nn2)n1       Ratio IC50            1
